Target: Shiga toxin 2 (Escherichia coli O157:H7) (UniProt P09385+P09386)
Experiment: E. coli 0.157:H7 Shiga Toxin SOP - stx2 screening assay
Format: functional
Parameters: scale not given: direction of the effect not stated beside the values
Conditions: 30 µM
Mark Not fulfilled for Percent Effect values under -10%, and Fulfilled for everything at or above.

Cc1cc(NC(=O)NCc2ccccc2OC(F)F)n(C)n1: Not fulfilled
Cc1nc(C)n(CC2CN(c3ccc(C#N)cn3)CCO2)n1 (configuration not stated): Fulfilled
CC(=O)Nc1nc(C(=O)NC(C)c2ccc(F)cc2)cs1 (configuration not stated): Fulfilled
Cc1ncccc1OC1(C(=O)NCCNc2ccccc2)CCNCC1: Fulfilled

Lookup: Please tell me: is the compound "Cc1nc(C)c(C(=O)OCCNc2ncccc2C#N)s1" at or over -10% in terms of Percent Effect?
Found: Not fulfilled

Lookup: Please tell me: is the compound "O=S(=O)(Cc1ccccc1)NCc1ccco1" at or over -10% in terms of Percent Effect?
Found: Fulfilled

Lookup: Please tell me: is the compound "Cc1cc(C(=O)N2CC[C@@H]3CN(S(C)(=O)=O)CCO[C@@H]3C2)c(C)o1" at or over -10% in terms of Percent Effect?
Found: Fulfilled
